Test: Chemical stability of compound in DMSO/aqueous buffer at 1 mg at pH 0.9 to 8.4 incubated at 37 degree C and measured upto 16 days by HPLC analysis
Assay type: physicochemical
Conditions: read-out: Stability
experimental endpoint: remaining at 384 h (%)
One number for each entry, in %.

*Q* Query: remaining at 384 h; subject: `CCOc1ccccc1NC(=O)c1ccc(C)c(S(=O)(=O)Nc2ccc(C)cc2)c1`
*A* 100

* * *

Assay: Chemical stability of compound in DMSO/aqueous buffer at 1 mg at pH 0.9 to 8.4 incubated at 25 degree C and measured upto 16 days by HPLC analysis
Type: physicochemical
Conditions: read-out: Stability
experimental endpoint: remaining at 384 h (%)
Answers are plain numbers, in %.

*Q* What remaining at 384 h value was documented for this compound, `CCOc1ccccc1NC(=O)c1ccc(C)c(S(=O)(=O)Nc2ccc(C)cc2)c1` ?
*A* 100

* * *

Assignment: determine reported IC50 for the given compounds.
Tested on: BT-549
Assay: Antiproliferative activity against human BT549 cells expressing NRP1 assessed as cell viability measured after 72 hrs by MTT assay
Type: functional, cell-based
Details: BT-549, 72 h
One number for each entry, in nM.

CCN(CC)CCNC(=O)c1c(C)[nH]c(/C=C2\C(=O)Nc3ccc(F)cc32)c1C 3500

*Q* For the compound shown here, `CCOc1ccccc1NC(=O)c1ccc(C)c(S(=O)(=O)Nc2ccc(C)cc2)c1` , give the reported IC50.
*A* 100
